# methodNotes: Oral bioavailability in Sprague-Dawley rat at 20 mg/kg by LC-MS/MS method
# Type: ADME, organism-based
# experimentalParameters: in vivo
measuredAttribute: bioavailability (%)

{"columns": ["compound", "value"],
 "data": [
  ["Cc1n[nH]c2ccc(-c3cc(N[C@@H](CO)c4ccccc4)cnc3-c3cc(F)ccc3O)cc12", 60]
]}

---

# measuredTarget: Insulin receptor (Homo sapiens)
# Sequence (P06213 28-758 limits assumed): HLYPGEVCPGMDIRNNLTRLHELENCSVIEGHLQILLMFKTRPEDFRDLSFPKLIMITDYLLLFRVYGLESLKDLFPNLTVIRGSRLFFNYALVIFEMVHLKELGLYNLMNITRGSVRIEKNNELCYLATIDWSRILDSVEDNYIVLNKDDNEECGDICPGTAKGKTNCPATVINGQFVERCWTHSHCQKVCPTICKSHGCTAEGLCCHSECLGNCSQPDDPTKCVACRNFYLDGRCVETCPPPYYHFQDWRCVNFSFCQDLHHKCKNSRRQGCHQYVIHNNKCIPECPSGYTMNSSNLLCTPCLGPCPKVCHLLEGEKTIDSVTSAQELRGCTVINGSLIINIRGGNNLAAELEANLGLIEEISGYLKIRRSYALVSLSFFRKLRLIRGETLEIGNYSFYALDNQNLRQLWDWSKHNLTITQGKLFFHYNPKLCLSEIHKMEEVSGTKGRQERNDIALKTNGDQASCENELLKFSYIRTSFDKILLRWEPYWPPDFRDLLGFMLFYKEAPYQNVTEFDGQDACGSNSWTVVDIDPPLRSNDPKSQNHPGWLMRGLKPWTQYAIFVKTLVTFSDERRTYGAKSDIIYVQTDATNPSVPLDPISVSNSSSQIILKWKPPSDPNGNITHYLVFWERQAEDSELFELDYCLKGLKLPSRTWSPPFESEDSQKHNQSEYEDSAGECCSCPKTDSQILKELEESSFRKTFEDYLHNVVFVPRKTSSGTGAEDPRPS
# Sequence (P06213 763-1382 limits assumed): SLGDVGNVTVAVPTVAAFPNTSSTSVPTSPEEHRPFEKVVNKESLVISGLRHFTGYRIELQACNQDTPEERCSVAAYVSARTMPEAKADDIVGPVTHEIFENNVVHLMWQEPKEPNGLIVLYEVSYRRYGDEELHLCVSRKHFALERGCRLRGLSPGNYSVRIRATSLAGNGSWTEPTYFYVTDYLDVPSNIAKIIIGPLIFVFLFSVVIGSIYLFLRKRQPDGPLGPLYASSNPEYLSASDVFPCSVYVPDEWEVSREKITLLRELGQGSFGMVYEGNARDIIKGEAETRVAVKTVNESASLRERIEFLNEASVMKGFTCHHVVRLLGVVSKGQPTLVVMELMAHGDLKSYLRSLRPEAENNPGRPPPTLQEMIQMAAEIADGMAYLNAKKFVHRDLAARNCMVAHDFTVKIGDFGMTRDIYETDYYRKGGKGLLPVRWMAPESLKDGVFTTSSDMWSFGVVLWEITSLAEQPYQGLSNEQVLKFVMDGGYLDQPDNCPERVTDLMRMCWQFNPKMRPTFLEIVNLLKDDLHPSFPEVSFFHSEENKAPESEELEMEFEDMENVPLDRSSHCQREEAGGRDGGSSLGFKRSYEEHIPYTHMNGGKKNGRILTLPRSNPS
# methodNotes: Inhibition of recombinant IR (unknown origin) using poly (Glu,Tyr) 4:1 as substrate after 60 mins by ELISA
pIC50: −log10 of the molar value.

{"columns": ["compound", "pIC50"],
 "data": [
  ["Cc1n[nH]c2ccc(-c3cc(N[C@@H](CO)c4ccccc4)cnc3-c3cc(F)ccc3O)cc12", 6.38],
  ["Cc1n[nH]c2ccc(-c3cc(N[C@@H](CO)c4ccccc4)cnc3-c3ccc(F)cc3O)cc12", 6.05],
  ["OC[C@H](Nc1cnc(-c2cc(Cl)ccc2O)c(-c2ccc3cnccc3c2)c1)c1ccccc1", 6.37],
  ["Cc1n[nH]c2ccc(-c3cc(N[C@@H](CO)c4ccccc4)cnc3-c3cc(Cl)ccc3O)cc12", 7.04]
]}
